Data provenance: patent US20230017045A1

Test system: test plant species
Assay: Post-emergent herbicidal activity test (greenhouse, foliar spray, visual growth reduction)
Type: in vivo
Settings: post-emergence, 336 h, ivy-leaf morning glory (Ipomoea hederacea), 14 Days After Application, 140 g ai/ha, read-out: Visual Growth Reduction (%) IPOHE
Source text: Post-emergent Test: Seeds or nutlets of the desired test plant species were planted in Sun Gro Metro-Mix® 360 planting mixture, which typically has a pH of 6.0 to 6.8 and an organic matter content of about 30 percent, in plastic pots with a surface area of 64 square centimeters. In some aspects, to ensure good germination and healthy plants, a fungicide treatment and/or other chemical or physical treatment was applied. […]
Measured pest or weed control at 140 g/ha accompanies every entry in the list below.
readoutType: pest or weed control at 140 g/ha

compound: COC(=O)c1nc(-c2ccc(C(F)(F)F)cc2Cl)c(C)cc1Cl
readoutValue: 30 to 44%
//
compound: COC(=O)c1nc(-c2ccc(/C=N/N(C)C)cc2Cl)ccc1Cl
readoutValue: 60 to 74%
//
compound: COC(=O)c1nc(-c2ccc(C(F)(F)F)cc2Cl)ccc1C#N
readoutValue: 60 to 74%
//
compound: COC(=O)c1nc(-c2ccc(C3CC3(F)F)cc2Cl)ccc1Cl (stereo not drawn)
readoutValue: 95 to 100%
//
compound: COC(=O)c1nc(-c2ccc(C(F)(F)F)cc2Cl)c(I)cc1Cl
readoutValue: 45 to 59%
//
compound: COC(=O)c1nc(-c2ccc(C(C)F)cc2Cl)ccc1Cl (stereo not drawn)
readoutValue: 45 to 59%
//
compound: COC(=O)c1nc(-c2ccc(C(F)(F)F)cc2Cl)c(SC)cc1Cl
readoutValue: 0 to 29%
//
compound: COC(=O)c1nc(-c2ccc(C(F)(F)F)cc2Cl)c(C#N)cc1Cl
readoutValue: 60 to 74%
//
compound: COC(=O)c1nc(-c2ccc(C(F)(F)F)cc2F)ccc1Cl
readoutValue: 95 to 100%
